Every entry's value here was drawn from patent US10934303B2.

Molecular target: GST-bound ER alpha ligand-binding domain (LBD) (Homo sapiens (Human), UniProt P03372)
Sequence (P03372 whole entry, looked up, the tested form may be a part): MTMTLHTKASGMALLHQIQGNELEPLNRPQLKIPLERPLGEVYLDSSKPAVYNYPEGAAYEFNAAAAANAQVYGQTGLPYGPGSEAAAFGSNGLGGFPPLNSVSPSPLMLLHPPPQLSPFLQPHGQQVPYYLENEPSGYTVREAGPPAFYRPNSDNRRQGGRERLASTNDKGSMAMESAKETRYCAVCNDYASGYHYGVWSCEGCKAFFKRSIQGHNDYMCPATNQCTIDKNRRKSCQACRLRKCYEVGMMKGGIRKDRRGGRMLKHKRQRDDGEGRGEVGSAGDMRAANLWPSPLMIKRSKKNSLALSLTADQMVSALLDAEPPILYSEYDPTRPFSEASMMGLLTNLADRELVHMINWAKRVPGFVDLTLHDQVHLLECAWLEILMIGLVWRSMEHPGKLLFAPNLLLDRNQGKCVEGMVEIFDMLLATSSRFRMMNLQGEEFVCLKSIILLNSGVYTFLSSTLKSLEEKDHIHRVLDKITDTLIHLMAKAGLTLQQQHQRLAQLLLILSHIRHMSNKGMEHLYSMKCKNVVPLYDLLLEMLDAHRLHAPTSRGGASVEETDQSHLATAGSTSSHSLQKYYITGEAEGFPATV
Experiment: biochemical
Conditions: TR-FRET, beta-estradiol 4 nM as agonist; read-out: Binding Assay, IC50 ERα
recordedMetric: log10(IC50) (log10 of the value in µM)

OCCC/C(=C(\c1ccc(O)cc1)c1ccc(OCCN2CC3CC3C2)cc1)c1ccccc1 (centres unmarked) [Compound 38a]: -0.36
OCCC/C(=C(\c1ccc(O)cc1)c1ccc(C2CCN(C3CC3)C2)cc1)c1ccccc1 (centres unmarked) [Compound 22t]: 0.77
OCCC/C(=C(\c1ccc(O)cc1)c1ccc(N2CCN(C3CCCCC3)CC2)cc1)c1ccccc1 [Compound 22p]: 0.33
CC(C)(C)OC(=O)N1CCN(c2ccc(/C(=C(/CCCO)c3ccccc3)c3ccc(Br)cc3)cc2)CC1 [Compound 18n]: 0.94
OCCC/C(=C(\c1ccc(O)cc1)c1ccc(N2CCNCC2)cc1)c1ccccc1 [Compound 20j]: 0.00
